- subjectOfTest: benzodiazepine (BZP) receptors
- assayText: Displacement ability for benzodiazepine (displacement of tritiated diazepam)
- measurementConditions: displacement of tritiated diazepam (2 nM), rat cerebral cortex synaptosomes, 0° C., 20 minutes, pH 7.4; read-out: Affinity to BZP Receptors, Ki
pKi: −log10 of the molar value.
Below, each entry is listed with its recorded pKi.
valueType: pKi

compound	valueType	testResult
Cc1cc2c(s1)CCCC1CC(=O)N(c3ccc(Cl)cc3)N=C21 (centres unmarked)	pKi	8.32
COc1ccc(N2N=C3c4cc(C)sc4CCCC3CC2=O)cc1 (centres unmarked)	pKi	8.96
